Target: 5-hydroxytryptamine receptor 1A (Homo sapiens)
Sequence (P08908 whole entry): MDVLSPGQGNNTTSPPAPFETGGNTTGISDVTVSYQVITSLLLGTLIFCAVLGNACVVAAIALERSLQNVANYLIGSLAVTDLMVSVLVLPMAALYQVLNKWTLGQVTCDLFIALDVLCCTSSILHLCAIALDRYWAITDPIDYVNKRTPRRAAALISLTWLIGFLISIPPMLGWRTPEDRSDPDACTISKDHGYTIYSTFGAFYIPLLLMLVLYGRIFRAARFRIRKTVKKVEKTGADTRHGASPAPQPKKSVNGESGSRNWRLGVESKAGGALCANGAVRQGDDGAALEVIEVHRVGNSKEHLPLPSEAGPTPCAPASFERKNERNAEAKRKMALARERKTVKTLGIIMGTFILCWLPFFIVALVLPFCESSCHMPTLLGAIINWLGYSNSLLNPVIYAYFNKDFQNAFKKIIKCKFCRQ
Test: Displacement of [3H]8-OH-DPAT from recombinant human 5-HT1A receptor expressed in HEK293 cell membranes measured after 60 mins by scintillation counting method
Documented pKi across a set of compounds
Interpret pKi as the negative base-10 log of the concentration measured in mol/L.

Take a look at these entries with their results.
Compound	Test system	Endpoint result
Clc1ccc(CCN2CCN(c3nsc4ccccc34)CC2)cc1Cl	5-hydroxytryptamine receptor 1A (Homo sapiens)	9.08
OC(CN1CCN(c2ccccc2)CC1)c1ccc(Cl)c(Cl)c1 (stereo not drawn)	5-hydroxytryptamine receptor 1A (Homo sapiens)	8.62

Suppose we examine the compound `Clc1ccc(CCN2CCN(c3ccccc3-c3ccccc3)CC2)cc1Cl` ; what pKi value has been reported?
8.20

---

Biological target: Sodium-dependent serotonin transporter (Rattus norvegicus)
Assay: Inhibition of SERT in rat brain synaptosomes assessed as reduction in [3H]-5-HT uptake at 10 uM measured after 15 mins by scintillation counting method relative to control
Format: subcellular
As shown below, each of these compounds has a reported inhibition value.
Answer format: numeric, % implied, no suffix.

Compound	Result unit	Endpoint result
Cc1ccc(-c2ccccc2N2CCN(CCc3ccc(Cl)c(Cl)c3)CC2)c(C)c1	%	31.5

Can you look up inhibition on Sodium-dependent serotonin transporter (Rattus norvegicus) for Oc1ccccc1N1CCN(CCC(O)c2ccc(Cl)c(Cl)c2)CC1 (stereo unspecified) ?
84.9

Missing value: inhibition, Sodium-dependent serotonin transporter (Rattus norvegicus), entry `Cc1ccccc1-c1ccccc1N1CCN(CCc2ccc(Cl)c(Cl)c2)CC1` . Fill in?
61.6

Please tell me: inhibition of COc1ccccc1N1CCN(CCC(O)c2ccc(Cl)c(Cl)c2)CC1 (stereo unspecified) , system Sodium-dependent serotonin transporter (Rattus norvegicus)?
88.8

---

Target: 5-hydroxytryptamine receptor 7 (Homo sapiens)
Sequence (P34969 whole entry): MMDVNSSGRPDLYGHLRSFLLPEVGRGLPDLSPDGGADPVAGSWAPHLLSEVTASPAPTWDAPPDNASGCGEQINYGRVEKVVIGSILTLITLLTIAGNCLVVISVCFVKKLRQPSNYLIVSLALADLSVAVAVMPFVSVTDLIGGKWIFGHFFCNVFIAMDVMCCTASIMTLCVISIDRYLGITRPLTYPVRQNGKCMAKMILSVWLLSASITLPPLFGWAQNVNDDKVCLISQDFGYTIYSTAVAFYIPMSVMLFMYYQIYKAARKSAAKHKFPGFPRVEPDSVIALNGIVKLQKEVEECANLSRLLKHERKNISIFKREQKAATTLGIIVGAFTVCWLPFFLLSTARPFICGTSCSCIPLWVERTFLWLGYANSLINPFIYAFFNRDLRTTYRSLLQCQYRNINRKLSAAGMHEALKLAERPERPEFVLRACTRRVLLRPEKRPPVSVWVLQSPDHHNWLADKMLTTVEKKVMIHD
Experiment: Displacement of [3H]-LSD from recombinant human 5-HT7 receptor expressed in CHO cell membranes at 10 uM measured after 60 mins by scintillation counting method
Reported endpoint: inhibition (%)
Give your result in % as a bare value.

Check out these entries, answers already filled in.
Cc1ccccc1-c1ccccc1N1CCN(CCc2ccc(Cl)c(Cl)c2)CC1 97.3
Cc1ccc(-c2ccccc2N2CCN(CCc3ccc(Cl)c(Cl)c3)CC2)cc1C 93.2
Cc1cccc(-c2ccccc2N2CCN(CCc3ccc(Cl)c(Cl)c3)CC2)c1 94.7

Would you kindly share the measured inhibition for `Clc1ccc(CCN2CCN(c3ccccc3-c3ccccc3)CC2)cc1Cl` ?
101

I would be grateful if you could share the reported inhibition for `COc1ccc(-c2ccccc2N2CCN(CCc3ccc(Cl)c(Cl)c3)CC2)cc1` .
97.5

---

Target: Sodium-dependent serotonin transporter (Rattus norvegicus, UniProt P31652)
Sequence (P31652 whole entry): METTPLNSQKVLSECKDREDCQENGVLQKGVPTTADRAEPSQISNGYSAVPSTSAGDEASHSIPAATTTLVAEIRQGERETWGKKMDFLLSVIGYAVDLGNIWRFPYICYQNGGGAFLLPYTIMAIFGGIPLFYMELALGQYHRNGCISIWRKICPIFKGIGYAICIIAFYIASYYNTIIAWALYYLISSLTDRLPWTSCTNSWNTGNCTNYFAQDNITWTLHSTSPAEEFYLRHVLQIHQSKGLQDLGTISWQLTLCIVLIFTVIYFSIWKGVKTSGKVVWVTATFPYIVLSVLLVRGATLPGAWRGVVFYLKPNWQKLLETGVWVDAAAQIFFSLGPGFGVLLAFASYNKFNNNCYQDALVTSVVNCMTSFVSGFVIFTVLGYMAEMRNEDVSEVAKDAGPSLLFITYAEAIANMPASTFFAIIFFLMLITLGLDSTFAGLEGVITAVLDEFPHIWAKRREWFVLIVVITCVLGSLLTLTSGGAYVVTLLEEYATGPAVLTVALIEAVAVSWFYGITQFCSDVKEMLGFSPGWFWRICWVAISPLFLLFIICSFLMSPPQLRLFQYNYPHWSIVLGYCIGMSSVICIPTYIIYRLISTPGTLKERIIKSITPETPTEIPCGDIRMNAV
Assay: Inhibition of SERT in rat brain synaptosomes assessed as reduction in [3H]-5-HT uptake measured after 15 mins by scintillation counting method
Reported endpoint: IC50 (nM)
Field format: number, assumed nM, no unit text.

Reference set, count: 3
Molecule	Test system	IC50 [nM]
Fc1cccc(-c2ccccc2N2CCN(CCc3ccc(Cl)c(Cl)c3)CC2)c1	Sodium-dependent serotonin transporter (Rattus norvegicus, UniProt P31652)	880
OC(CN1CCN(c2ccccc2)CC1)c1ccc(Cl)c(Cl)c1 (configuration not stated)	Sodium-dependent serotonin transporter (Rattus norvegicus, UniProt P31652)	340
Fc1ccc(-c2ccccc2N2CCN(CCc3ccc(Cl)c(Cl)c3)CC2)cc1	Sodium-dependent serotonin transporter (Rattus norvegicus, UniProt P31652)	950

What value of IC50 has been reported for the following molecule? `Clc1ccc(CCN2CCN(c3ccccc3-c3ccccc3)CC2)cc1Cl`
840

Quick check: IC50 of OC(CCN1CCN(c2ccccc2-c2ccccc2)CC1)c1ccc(Cl)c(Cl)c1 (configuration not stated) ?
590

Quick check: IC50 of `Clc1ccc(CCN2CCN(c3nsc4ccccc34)CC2)cc1Cl` ?
100

May I ask what IC50 has been recorded for `Cc1ccc(Sc2ccccc2N2CCNCC2)c(C)c1` ?
2.9

Where these numbers come from: ChEMBL document CHEMBL4177692
